assay: CEETOX_H295R_OHPREG: CeeTox H295R High-throughput Steroidogenesis Assay for OH-Pregnenolone (OHPREG) (AID 2283434); conditions: actives raise or lower the signal
Activity calls are given as the source filed them. Rule for the calls: active = hit-call score of the fitted dose curve at least 0.9, where 1 is the maximum; inactive = score below 0.9.
recorded-metric: AC50

CCCCCCCCCCCCN1CCOCC1 | 645 nM (active)
OCC=Cc1ccccc1 | inactive
CC(=N[Si](C)(C)C)O[Si](C)(C)C | inactive

###

target: human Phosphodiesterase 10 (PDE10), PDE10A (gene 10846); assay: NVS_ENZ_hPDE10: NovaScreen (NVS) Enzymatic Assay for human Phosphodiesterase 10 (PDE10) (AID 2283195)
Results filed as inconclusive are left out. The source made the active and inactive calls. Rule for the calls: active = hit-call score of the fitted dose curve at least 0.9, where 1 is the maximum; inconclusive = response in the unintended direction; inactive = score below 0.9.
Result category, one only: YES for active, NO for inactive

As a guide, the following entries are already answered.
O=C(c1ccc(OCCN2CCCCC2)cc1)c1c(-c2ccc(O)cc2)sc2cc(O)ccc12 | YES
COc1ccccc1NC(=O)CC(C)=O | YES
CC1(C)[C@H](C=C(Cl)Cl)[C@H]1C(=O)OCc1cccc(Oc2ccccc2)c1 | YES

Now consider a different molecule.
How was Brc1cc(Br)cc(Br)c1 classified in this test?
NO

###

Assay: ACEA_ER_80hr: ACEA Biosciences xCELLigence Real-Time Cell Analysis on Estrogen Receptor Agonism for Proliferation (AID 2282667)
Settings: T47D proliferation, impedance (xCELLigence), 80 h
Experimental: ACEA_ER is a cell-based, single-readout assay that uses T47D, a human breast cell line, with measurements taken at 80 hours after chemical dosing in a 96-well plate, although TO2 (mc0.srcf) used a 384-well plate. Differences in plate size can be ignored given data normalization.ACEA_ER_80hr is one of two assay component(s) measured or calculated from the ACEA_ER assay. […]
Results filed as inconclusive are left out. The source made the active and inactive calls. How the source made its calls: active means hit-call score of the fitted dose curve at least 0.9, where 1 is the maximum; inconclusive means response in the unintended direction; inactive means score below 0.9.
A correct response names exactly one class from active, inactive

Here are 10 compounds together with their reported answers.
CCCO | inactive
S=c1[nH][nH]c(=S)s1 | active
CC(C)Cc1ccccc1 | inactive
Nc1ccn([C@H]2CC[C@@H](CO)O2)c(=O)n1 | inactive
C=C(C)C(=O)OCCOCCOC(=O)C(=C)C | inactive
CC(C)(C)c1cccc(O)c1 | inactive
CCCC1CCC(=O)CC1 | inactive
NC(=O)c1cccnc1 | inactive
CC(C)N1C(=O)c2ccccc2C1=O | inactive
CC(O)CNCC(C)O (stereo not given) | active

Identify the outcome logged in this assay for the compound shown: C=CCS(=O)(=O)O
inactive

Subsequent entry: O=S(=O)(O)CCCN1CCOCC1
inactive

Next compound up: Cc1ccncc1
inactive

Also N#CCCCC(C#N)CCC#N (stereo not given) , if possible.
inactive

Same for C=CC(C)(CCC=C(C)C)OC(=O)CC (stereo not given)
inactive

Cool, now O=C(O)CS
inactive

Same again, this time with CC(C)COC(=O)c1ccccc1O
inactive

Also need CCCCCCC(C)O (stereo not given) , thanks.
inactive

Query NCCCOCCOCCOCCCN next
active

Now the compound C1=COCCC1
inactive

Also, CCCCC1CCCCC(=O)O1 (stereo not given) please.
inactive

Also CC1(C)CC(N)CC(C)(CN)C1 (stereo not given) ?
inactive

What do you get for CCCCCCCCCCCCCC(=O)OCC ?
inactive

And then NNC(=O)OCc1ccccc1 , what is it?
inactive

Where these numbers come from: PubChem BioAssay (EPA / NIEHS)
